Quick reference: pest or weed control at 250 g/ha of the listed items.
Test system: Lolium perenne (LOLPE)
ASSAY_EXPLANATION: Glasshouse assay for herbicidal activity (pre- and post-emergence), percentage phytotoxicity
Type: in vivo
SETTINGS: Lolium perenne, post-emergence, 360 h, POST-emergence, rate 250 g/ha, visual score 15 DAA (100%=total damage, 0%=no damage); read-out: Post-emergence herbicidal activity (percentage phytotoxicity) LOLPE POST
Give a bare numeral; the unit % is implied.

Consider the reported pest or weed control at 250 g/ha for these molecules:
**Query** Tell me reported pest or weed control at 250 g/ha for C#CCNC(=O)CC1CC(=O)C(c2c(C)cc(/C=C/C)cc2C)C1=O (centres unmarked) [Compound B174] , tested with Lolium perenne (LOLPE).
**Result** 90

**Query** # repeat for C=CCNC(=O)CC1CC(=O)C(c2c(C)cc(-n3cc(Cl)cn3)cc2CC)C1=O (centres unmarked) [Compound B236]
**Result** 100

**Query** # repeat for C/C=C/c1cc(C)c(C2C(=O)CC(CC(=O)NCC3CC3)C2=O)c(CC)c1 (centres unmarked) [Compound B196]
**Result** 100

**Query** # repeat for CCNC(=O)CC1CC(=O)C(c2c(C)cc(-c3ncc(Br)cn3)cc2C)C1=O (centres unmarked) [Compound B282]
**Result** 100

**Query** # repeat for CCc1cc(C)cc(C)c1C1C(=O)CC(CC(=O)NCc2ccc(C#N)cc2)C1=O (centres unmarked) [Compound B254]
**Result** 100

Attention now turns to another entry.
**Query** Tell me reported pest or weed control at 250 g/ha for COCCN(CCOC)C(=O)CC1CC(=O)C(c2c(C)cc(-c3ncc(F)cc3F)cc2C)C1=O (centres unmarked) [Compound B266] , tested with Lolium perenne (LOLPE).
**Result** 80

* * *

Tested on: Lolium perenne (LOLPE)
ASSAY_EXPLANATION: Glasshouse assay for herbicidal activity (pre- and post-emergence), percentage phytotoxicity
Type: in vivo
SETTINGS: Lolium perenne, pre-emergence, 480 h, PRE-emergence, rate 250 g/ha, visual score 20 DAA (100%=total damage, 0%=no damage); read-out: Pre-emergence herbicidal activity (percentage phytotoxicity) LOLPE PRE
Method: Test—Glasshouse Assay for Herbicidal Activity Seeds of a variety of monocotyledonous and dicotyledonous test plants are sown in standard soil in pots. The plants are cultivated for one day (for pre-emergence (PRE)) or for about 12 days (for post-emergence (POST)) under controlled conditions in a glasshouse (warm climate species at 24/18° C., cool climate species at 20/16° C., both at day/night; 16 hours light; 65% humidity). […]
METRIC_NAME: pest or weed control at 250 g/ha (%)
Give a bare numeral; the unit % is implied.

**Query** Entry CCc1cc(OCC(F)(F)F)cc(C)c1C1C(=O)CC(CC(=O)NCc2ccc(C#N)cc2)C1=O (centres unmarked) has what pest or weed control at 250 g/ha?
**Result** 70

**Query** # repeat for Cc1cc(-c2ncc(Br)cn2)cc(C)c1C1C(=O)CC(CC(=O)N2CCOCC2)C1=O (centres unmarked)
**Result** 100

**Query** # repeat for C=CC(C)NC(=O)CC1CC(=O)C(c2c(C)cc(Br)cc2C)C1=O (centres unmarked)
**Result** 70

**Query** # repeat for C/C=C/c1cc(C)c(C2C(=O)CC(CC(=O)NC(C)C)C2=O)c(CC)c1 (centres unmarked)
**Result** 100

**Query** # repeat for C/C=C/CNC(=O)CC1CC(=O)C(c2c(C)cc(-c3ncc(F)cn3)cc2C)C1=O (centres unmarked)
**Result** 80

**Query** # repeat for Cc1cc(-c2ccc(Br)cn2)cc(C)c1C1C(=O)CC(CC(=O)NC(C)(C)C)C1=O (centres unmarked)
**Result** 90

**Query** # repeat for C/C=C/c1cc(C)c(C2C(=O)CC(CC(=O)NCc3cccc(F)c3)C2=O)c(C)c1 (centres unmarked)
**Result** 0

**Query** # repeat for Cc1cc(OCC(F)(F)F)cc(C)c1C1C(=O)CC(CC(=O)NCc2cccc(Cl)c2)C1=O (centres unmarked)
**Result** 90

Reference source for all entries: patent US10206394B2
